Biological target: acetylcholinesterase (Homo sapiens, UniProt P22303)
Sequence (P22303 32-614, species assumed): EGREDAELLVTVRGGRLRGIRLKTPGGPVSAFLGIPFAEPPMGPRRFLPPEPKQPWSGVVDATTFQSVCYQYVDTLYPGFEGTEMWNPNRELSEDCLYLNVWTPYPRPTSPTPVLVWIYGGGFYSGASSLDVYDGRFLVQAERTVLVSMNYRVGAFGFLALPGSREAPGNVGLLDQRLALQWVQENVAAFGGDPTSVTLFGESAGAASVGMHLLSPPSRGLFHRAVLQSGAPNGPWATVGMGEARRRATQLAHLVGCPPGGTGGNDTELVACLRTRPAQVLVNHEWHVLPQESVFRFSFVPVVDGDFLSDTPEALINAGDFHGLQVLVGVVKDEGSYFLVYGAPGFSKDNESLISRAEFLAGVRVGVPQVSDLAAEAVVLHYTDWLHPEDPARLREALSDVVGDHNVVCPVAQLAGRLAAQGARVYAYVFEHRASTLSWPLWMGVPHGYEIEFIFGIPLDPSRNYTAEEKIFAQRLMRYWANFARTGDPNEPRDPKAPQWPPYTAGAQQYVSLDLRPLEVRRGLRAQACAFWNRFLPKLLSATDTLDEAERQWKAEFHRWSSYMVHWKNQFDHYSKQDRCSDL
readout_label: IC50 (µM)

1) C[C@@H]1O[C@@H](OC[C@H]2O[C@@H](Oc3c(-c4ccc(O)c(O)c4)oc4cc(O)cc(O)c4c3=O)[C@H](O)[C@@H](O)[C@@H]2O)[C@H](O)[C@H](O)[C@H]1O :: 1490

Numbers sourced from paper PMC10255713.
